target.or.system: RORγ (UniProt P51449)
assay.procedure: RORγ Gal4 Reporter Gene Assay in 293T cells (firefly and renilla luciferase)
Assay type: cell-based, human

# molecule.smiles, target.or.system, pIC50 (FF)
records = [
    ("Cc1c(C(=O)NCC2(CCO)COC2)cc(-c2cc(C(C)(C)C)cc(C(C)(C)C)c2)n1CC1CCCCC1", "RORγ (UniProt P51449)", "6.2/6.1/6.1"),
    ("Cc1c(C(=O)NCCOC(C)C)cc(-c2cc(C(C)(C)C)cc(C(C)(C)C)c2)n1CC1CCCCC1", "RORγ (UniProt P51449)", "6.5/6.4/6.3"),
    ("Cc1c(C(=O)NCCN2CCN(C)CC2)cc(-c2cc(C(C)(C)C)cc(C3(C)CC3)c2)n1CC1CCCCC1", "RORγ (UniProt P51449)", "5.3/<4.7/<4.7"),
]

###

target.or.system: RORγ ligand binding domain (LBD) (Homo sapiens)
Construct: made in house; host or cells: E. coli BL-21 (BL3), vector pDEST15
Sequence (P51449 269-508 limits assumed): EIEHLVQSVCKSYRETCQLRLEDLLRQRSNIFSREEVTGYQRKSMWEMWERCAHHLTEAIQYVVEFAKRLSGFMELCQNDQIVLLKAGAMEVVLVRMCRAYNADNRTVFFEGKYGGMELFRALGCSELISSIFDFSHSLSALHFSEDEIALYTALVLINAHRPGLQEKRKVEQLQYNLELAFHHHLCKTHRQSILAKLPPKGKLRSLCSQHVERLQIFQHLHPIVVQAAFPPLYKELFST
assay.procedure: TR-FRET Activity Assay (ligand sensing, RORγ-LBD / coactivator peptide interaction, LANCE)
Assay type: biochemical
measurement.setup: first value of the cell FRET/FF/REN; TR-FRET activity assay; read-out: pIC50 (FRET) (converted)
The entries below are paired with their reported log10 of IC50.
metric: log10 of IC50 (log10 of the value in nM)

# compound, log10 of IC50
records = [
    ("CC(C)(C)NS(=O)(=O)c1ccc(-c2cc(C(=O)NCCC(C)(C)C(=O)O)c(Cl)n2CC2CCCCC2)cc1C(F)(F)F [Example 22]", 2.60),
    ("Cc1c(C(=O)NCCC(C)(C)C(=O)O)cc(-c2cc(C(C)(C)O)cc(C(F)(F)F)c2)n1CC1CCCCC1 [17/308]", 3.80),
    ("Cc1c(C(=O)NCCN2CCOCC2)cc(-c2cc(C(C)(C)O)cc(C3(C)CC3)c2)n1CC1CCCCC1 [17/316]", 3.40),
    ("Cc1c(C(=O)NC2COC2)cc(-c2cc(C(C)(C)C)cc(C(C)(C)C)c2)n1S(=O)(=O)N1CCCCCC1 [7/4]", 2.30),
    ("Cc1c(C(=O)NC2COC2)cc(-c2cc(C(C)(C)C)cc(C(C)(C)C)c2)n1CCC1CCCC1 [1/116]", 2.10),
    ("Cc1c(C(=O)N[C@H]2C[C@H](C(=O)O)C2)cc(-c2ccc(S(=O)(=O)NC(C)(C)C)c(C(C)(C)O)c2)n1CC1CCCCC1 [17/328]", 2.70),
    ("Cc1c(C(=O)NCCS(C)(=O)=O)cc(-c2ccc(S(=O)(=O)NC(C)(C)C)c(C(C)(C)C)c2)n1CC1CCCCC1 [1/130]", 2.90),
    ("Cc1c(C(=O)NC2CCS(=O)(=O)CC2)cc(-c2cc(C(C)(C)O)cc(C3(C)CC3)c2)n1CC1CCCCC1 [17/321]", 3.00),
    ("Cc1c(C(=O)NCC(C)(C)CC(=O)O)cc(-c2ccc(S(=O)(=O)NC(C)(C)C)c(C(F)(F)F)c2)n1CC1CCCCC1 [17/134]", 2.60),
]
